system: HeLa; assay: Cytotoxicity against human HeLa cells; format: functional, cell-based
pIC50: −log10 of the molar value.
Readings of pIC50 for the listed compounds
parameterMeasured: pIC50

itemSmiles | parameterMeasured | numericResult
O=C1C=C(Oc2ccco2)C(=O)c2ccccc21 | pIC50 | 4.43
O=C(Oc1cccc2c1C(=O)C=CC2=O)c1ccco1 | pIC50 | 4.90
O=C1C=CC(=O)c2c(OCc3ccccc3)cccc21 | pIC50 | 4.86
O=C1C=CC(=O)c2cc(OCc3ccccc3)ccc21 | pIC50 | 4.77
CC1=CC(=O)c2c(O)cccc2C1=O | pIC50 | 4.99
CS(=O)(=O)Oc1cccc2c1C(=O)C=CC2=O | pIC50 | 4.63
Cc1ccc(S(=O)(=O)OC2=CC(=O)c3ccccc3C2=O)cc1 | pIC50 | 4.91
C=CCOc1ccc2c(c1)C(=O)C=CC2=O | pIC50 | 4.57
O=C(Oc1cccc2c1C(=O)C=CC2=O)c1ccccc1 | pIC50 | 4.89
CCCOC1=CC(=O)c2ccccc2C1=O | pIC50 | 4.29
Cc1ccc(S(=O)(=O)Oc2cccc3c2C(=O)C=CC3=O)cc1 | pIC50 | 5.02
O=C(Oc1ccc2c(c1)C(=O)C=CC2=O)c1cccs1 | pIC50 | 5.05
CS(=O)(=O)Oc1ccc2c(c1)C(=O)C=CC2=O | pIC50 | 4.75

###

assay: Redox potential of compound in phosphate buffer at pH 7.2 by cyclic voltammetry; type: physicochemical

itemSmiles | measurementUnits | Activity
COc1ccc2c(c1)C(=O)C=CC2=O | V | -0.196
O=C1C=C(Oc2ccco2)C(=O)c2ccccc21 | V | -0.395
CS(=O)(=O)Oc1ccc2c(c1)C(=O)C=CC2=O | V | -0.15
O=C(Oc1cccc2c1C(=O)C=CC2=O)c1cccs1 | V | -0.212
CC(=O)Oc1cccc2c1C(=O)C=CC2=O | V | -0.208
Cc1ccc(S(=O)(=O)Oc2cccc3c2C(=O)C=CC3=O)cc1 | V | -0.151
CS(=O)(=O)OC1=CC(=O)c2ccccc2C1=O | V | -0.146

###

Readings of pIC50 for the listed compounds
system: KB; assay: Cytotoxicity against human KB cells; assay type: functional, cell-based
pIC50: −log10 of the molar value.

itemSmiles | targetSystem | pIC50
O=C(Oc1cccc2c1C(=O)C=CC2=O)c1ccco1 | KB | 4.87
O=C1C=C(Oc2ccco2)C(=O)c2ccccc21 | KB | 4.27
CS(=O)(=O)Oc1cccc2c1C(=O)C=CC2=O | KB | 4.57
C/C=C/C(=O)OC1=CC(=O)c2ccccc2C1=O | KB | 4.19
O=C1C=CC(=O)c2cc(OCc3ccccc3)ccc21 | KB | 4.58
